Some molecules, each annotated with its measured pKi.
target: CRTH2 (Homo sapiens (Human)); assay: CRTH2 receptor binding inhibitory activity ([3H]-PGD2 displacement, membranes of CRTH2-expressing K562 cell); settings: CRTH2 receptor binding, [3H]-PGD2 displacement, membrane of CRTH2-expressing K562 cell; categorized AAAA/AAA; read-out: Ki
Sequence (Q9Y5Y4 whole entry): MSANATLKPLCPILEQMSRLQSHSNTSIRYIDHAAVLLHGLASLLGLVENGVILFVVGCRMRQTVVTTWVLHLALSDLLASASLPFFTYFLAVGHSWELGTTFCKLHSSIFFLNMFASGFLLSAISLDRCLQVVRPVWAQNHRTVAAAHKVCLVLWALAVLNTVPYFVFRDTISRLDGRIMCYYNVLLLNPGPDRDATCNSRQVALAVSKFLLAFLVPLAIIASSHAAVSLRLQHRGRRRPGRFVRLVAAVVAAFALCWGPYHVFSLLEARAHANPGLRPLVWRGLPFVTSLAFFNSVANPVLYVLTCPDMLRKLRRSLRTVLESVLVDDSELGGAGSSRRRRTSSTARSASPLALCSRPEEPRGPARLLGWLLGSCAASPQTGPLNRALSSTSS
pKi: −log10 of the molar value.
measurement type: pKi

- molecule: "CCOc1ccc(S(=O)(=O)N2C[C@H](n3nc(CC(=O)O)c4ccccc43)C(C)(C)C2)cc1 [Compound I-356]"
  measurement type: "pKi"
  recorded result: "> 7.00"
- molecule: "CCOc1ccc(S(=O)(=O)N2C[C@@H](C)[C@@H](n3nc(Cc4cc(O)no4)c4ccccc43)C2)cc1 [Compound I-341]"
  measurement type: "pKi"
  recorded result: "5.30 to 7.00"
- molecule: "CCOc1ccc(S(=O)(=O)N2C[C@@H](C)[C@@H](n3nc(CC(=O)O)c4ccccc43)C2)c(OC)c1 [Compound I-261]"
  measurement type: "pKi"
  recorded result: "5.30 to 7.00"
- molecule: "CCOc1ncc(S(=O)(=O)N2C[C@@H](C)[C@@H](n3nc(CC(=O)O)c4ccc(C)cc43)C2)s1 [Compound I-170]"
  measurement type: "pKi"
  recorded result: "> 7.00"
- molecule: "CCOc1ccc(S(=O)(=O)N2C[C@@H](C)[C@@H](n3nc(CC(=O)O)c4ccccc43)C2)cc1 [Compound I-97]"
  measurement type: "pKi"
  recorded result: "> 7.00"
- molecule: "CC(C)Oc1ccc(S(=O)(=O)N2C[C@@H](C)[C@@H](n3nc(CCC(=O)O)c4ccc(F)cc43)C2)cc1 [Compound I-101]"
  measurement type: "pKi"
  recorded result: "5.30 to 7.00"
- molecule: "C=Cc1cc(OCC)ccc1S(=O)(=O)N1C[C@@H](C)[C@@H](n2nc(CC(=O)O)c3ccccc32)C1 [Compound I-276]"
  measurement type: "pKi"
  recorded result: "> 7.00"

---

target: CRTH2 (Homo sapiens (Human)); assay: CRTH2 receptor binding inhibitory activity ([3H]-PGD2 displacement, membranes of CRTH2-expressing K562 cell); conditions: CRTH2 receptor binding, [3H]-PGD2 displacement, membrane of CRTH2-expressing K562 cell; categorized AAAA/AAA; read-out: Ki
measurement type: Ki

- line notation: "CCOc1ccc(S(=O)(=O)N2C[C@@H](C)[C@@H](n3nc(CC(=O)O)c4ccc(F)cc43)C2)c(F)c1"
  measurement type: "Ki"
  recorded result: "< 100 nM"
- line notation: "CO[C@@H]1CN(S(=O)(=O)c2ccc(OC(C)C)cc2)C[C@@H]1n1nc(CC(=O)O)c2ccc(F)cc21"
  measurement type: "Ki"
  recorded result: "100 to 5000 nM"
- line notation: "CCOc1ccc(S(=O)(=O)N2C[C@@H](C)[C@@H](n3nc(CC(=O)O)c4ccccc43)C2)c(/C=C/COC)c1"
  measurement type: "Ki"
  recorded result: "< 100 nM"
- line notation: "COc1ccc(S(=O)(=O)N2C[C@@H](C)[C@@H](n3nc(CC(=O)O)c4ccc(F)cc43)C2)s1"
  measurement type: "Ki"
  recorded result: "< 100 nM"
- line notation: "CC(C)Oc1ccc(S(=O)(=O)N2CC[C@H](n3nc(CC(=O)O)c4ccc(F)cc43)[C@H](C)C2)cc1"
  measurement type: "Ki"
  recorded result: "100 to 5000 nM"
- line notation: "CCc1ccc(S(=O)(=O)N2C[C@@H](C)[C@@H](n3nc(CC(=O)O)c4ccc(C)cc43)C2)cc1"
  measurement type: "Ki"
  recorded result: "< 100 nM"
- line notation: "C[C@@H]1CN(S(=O)(=O)c2ccc(OC(F)F)cc2)C[C@@H]1n1nc(CC(=O)O)c2ccc(C(F)(F)F)cc21"
  measurement type: "Ki"
  recorded result: "< 100 nM"

Where do these numbers come from? They come from patent US9725442B2.
